- Tested on: human serotonin transporter (Homo sapiens (Human))
- Assay comment: Human SERT (serotonin transporter) uptake assay
- Type: cell-based
- Setup conditions: read-out: hSERT Ki
Here the recorded Ki is given for each entry.
Put your answer as a value accompanied by its unit after it.

> print(dat)
                                   compound  reading
1  CNC[C@H](c1ccc(-c2ccccc2)cc1)[C@H](O)c1ccccc1 (racemic) [Compound 113]   5.2 nM
2  CNC[C@H](c1ccc2ccccc2c1)[C@H](O)c1ccccc1C [Compound 28]   3.4 nM
3  CNC[C@H](c1ccc2ccccc2c1)[C@H](OCCO)c1ccccc1 [Compound 32]   0.7 nM
4  CNC[C@H](c1ccc2ccccc2c1)[C@H](OCC(=O)N(C)C)c1ccccc1 [Compound 33]   1.4 nM
5  NCC[C@@H](Cc1cccnc1)c1ccc(Cl)c(Cl)c1 [Compound 112]   154 nM
6  CNC[C@H](c1ccc(Cl)c(Cl)c1)[C@H](O)c1cncc(OC)c1 [Compound 166]  36.9 nM

Query string: So what's the measured Ki for this one? CN1CO[C@H](c2ccccc2)[C@@H](c2ccc3ccccc3c2)C1 [Compound 4]
Result string: 2.5 nM

Query string: Could you do the same for CNC[C@@H](c1ccc2ccccc2c1)[C@@H](O)c1cccnc1 [Compound 103] , please?
Result string: 58.6 nM

Query string: Could you do the same for NC[C@H](c1ccc2ccccc2c1)[C@@H](O)c1ccncc1Cl [Compound 95] , please?
Result string: 36.9 nM

Query string: Could you do the same for CNC[C@H](c1ccc2ccccc2c1)[C@H](OCC(=O)N1CC[C@@H](O)C1)c1ccccc1 [Compound 34] , please?
Result string: 7.5 nM

Query string: Could you do the same for CN(C)C[C@H](c1ccc2ccccc2c1)[C@H](OCCO)c1ccccc1 [Compound 89] , please?
Result string: 1.8 nM

Query string: Could you do the same for CNC[C@H](c1ccc2ccccc2c1)[C@H](OCc1cc(C)no1)c1ccccc1 [Compound 20] , please?
Result string: 3.2 nM

Query string: Could you do the same for CNC[C@H](c1ccc2ccccc2c1)[C@H](N)c1ccccc1 [Compound 87] , please?
Result string: 6.1 nM

====

- Tested on: hERG (Homo sapiens (Human), UniProt Q12809)
- Sequence (Q12809 whole entry): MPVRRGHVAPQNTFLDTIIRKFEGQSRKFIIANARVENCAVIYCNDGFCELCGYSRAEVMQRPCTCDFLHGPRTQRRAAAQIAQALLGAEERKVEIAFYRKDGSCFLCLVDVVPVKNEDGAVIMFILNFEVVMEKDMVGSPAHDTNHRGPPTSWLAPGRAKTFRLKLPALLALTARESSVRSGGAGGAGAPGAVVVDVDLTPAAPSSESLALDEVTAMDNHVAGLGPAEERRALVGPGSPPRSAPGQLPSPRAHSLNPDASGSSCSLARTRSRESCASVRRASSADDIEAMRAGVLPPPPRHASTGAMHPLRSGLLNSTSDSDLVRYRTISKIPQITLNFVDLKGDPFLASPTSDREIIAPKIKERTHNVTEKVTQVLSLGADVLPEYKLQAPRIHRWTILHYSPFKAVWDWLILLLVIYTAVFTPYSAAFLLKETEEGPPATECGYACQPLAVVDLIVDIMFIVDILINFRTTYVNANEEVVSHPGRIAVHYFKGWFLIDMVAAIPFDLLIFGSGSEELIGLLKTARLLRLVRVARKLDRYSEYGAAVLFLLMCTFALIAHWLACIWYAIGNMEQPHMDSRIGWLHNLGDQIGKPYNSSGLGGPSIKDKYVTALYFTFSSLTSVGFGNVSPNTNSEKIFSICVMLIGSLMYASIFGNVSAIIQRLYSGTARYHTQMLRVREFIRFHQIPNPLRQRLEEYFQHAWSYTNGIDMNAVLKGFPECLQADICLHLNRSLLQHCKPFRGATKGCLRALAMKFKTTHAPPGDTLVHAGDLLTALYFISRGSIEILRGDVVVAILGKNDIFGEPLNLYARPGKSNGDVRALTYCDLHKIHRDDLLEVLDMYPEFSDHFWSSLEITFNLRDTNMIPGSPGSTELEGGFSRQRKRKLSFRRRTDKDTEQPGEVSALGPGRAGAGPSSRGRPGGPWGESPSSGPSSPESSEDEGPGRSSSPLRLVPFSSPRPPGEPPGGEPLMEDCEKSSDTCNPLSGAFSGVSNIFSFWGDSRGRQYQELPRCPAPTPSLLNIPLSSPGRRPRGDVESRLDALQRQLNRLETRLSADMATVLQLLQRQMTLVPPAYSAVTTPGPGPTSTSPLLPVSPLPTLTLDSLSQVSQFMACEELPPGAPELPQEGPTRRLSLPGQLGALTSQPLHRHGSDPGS
- Assay comment: Human ERG (hERG) assay, hERG currents in hERG-expressing CHO cells
- Type: cell-based
- Setup conditions: hERG-expressing CHO cells
pIC50: −log10 of the molar value.
Label T when pIC50 is at or above 5; otherwise label F.

The following molecules have reported results that may help.
> print(dat)
                                   molecule  assigned.label
1  CNCC(Cc1cccnc1)c1ccc2ccccc2c1 (stereo not shown) [Compound 74]               F
2  CNC[C@H](c1ccc2ccccc2c1)[C@H](O)c1ccccc1C [Compound 28]               F
3    CNCC(Cc1cccs1)c1ccc2ccccc2c1 (racemic)               T
4  CNC[C@H](c1ccc2ccccc2c1)[C@H](OCc1noc(C)n1)c1ccccc1               F

Query string: Identify whether the reported pIC50 of the following molecule is 5 or greater: CNC[C@@H](c1ccc2ccccc2c1)[C@H](O)c1ccccn1 [Compound 99]
Result string: F

Query string: Could you do the same for CNC[C@H](c1ccc2ccccc2c1)[C@H](O)c1ccccc1C (racemic) [Compound 56] , please?
Result string: F

Query string: Could you do the same for "CNC[C@H](c1ccc2ccccc2c1)[C@H](OCC(=O)NC)c1ccccc1" , please?
Result string: F

Query string: Could you do the same for "CNC[C@H](c1ccc2ccccc2c1)[C@H](OCc1cc(C)no1)c1ccccc1" , please?
Result string: T

Query string: Could you do the same for CNCC(c1ccc(F)c(Cl)c1)[C@H](O)c1ccccc1 (stereo partly shown) , please?
Result string: F

Query string: Could you do the same for "CN1CCO[C@H](c2ccccc2)[C@@H](c2ccc3ccccc3c2)C1" , please?
Result string: T

Query string: Could you do the same for CNCC(Cc1ccccc1OC)c1ccc2ccccc2c1 (stereo not shown) [Compound 57] , please?
Result string: T

Query string: Could you do the same for CNCC(Cc1cccnc1)c1ccc2ccccc2c1 (stereo not shown) [Compound 48] , please?
Result string: F

====

- Tested on: human serotonin transporter (Homo sapiens (Human), UniProt P31645)
- Sequence (P31645 whole entry): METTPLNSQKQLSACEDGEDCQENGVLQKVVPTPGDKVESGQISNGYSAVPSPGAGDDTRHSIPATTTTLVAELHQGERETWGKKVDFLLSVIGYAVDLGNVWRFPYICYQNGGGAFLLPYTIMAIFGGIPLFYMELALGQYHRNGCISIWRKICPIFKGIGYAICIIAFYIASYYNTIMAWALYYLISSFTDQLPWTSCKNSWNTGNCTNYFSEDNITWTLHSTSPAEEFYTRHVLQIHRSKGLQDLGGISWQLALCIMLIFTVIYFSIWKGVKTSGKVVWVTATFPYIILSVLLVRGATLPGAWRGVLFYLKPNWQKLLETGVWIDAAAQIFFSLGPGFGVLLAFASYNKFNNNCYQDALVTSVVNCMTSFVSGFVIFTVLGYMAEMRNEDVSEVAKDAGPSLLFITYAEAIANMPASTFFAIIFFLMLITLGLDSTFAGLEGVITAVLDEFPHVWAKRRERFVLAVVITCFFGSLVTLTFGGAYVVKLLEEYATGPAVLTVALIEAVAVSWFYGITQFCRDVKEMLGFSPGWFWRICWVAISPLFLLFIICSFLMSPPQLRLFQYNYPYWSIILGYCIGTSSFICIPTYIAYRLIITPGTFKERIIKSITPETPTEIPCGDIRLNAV
- Assay comment: Human SERT (serotonin transporter) uptake assay
- Type: cell-based
- Setup conditions: read-out: hSERT Ki
Readout kind: Ki (nM)
State just the number; it will be interpreted in nM.

> print(dat)
                                   compound  readout.kind  reading
1  CN(C)C[C@H](c1ccc(Cl)c(Cl)c1)[C@H](O)c1ccccc1 (racemic)            Ki      138

Query string: human serotonin transporter (Homo sapiens (Human), UniProt P31645) / Ki / "CNC[C@H](c1ccc(Cl)c(Cl)c1)[C@H](O)c1ccccc1" : value?
Result string: 11.7

Query string: Could you do the same for "CNC[C@H](c1ccc2ccccc2c1)[C@H](OCC(N)=O)c1ccccc1" , please?
Result string: 0.6

====

- Tested on: CYP3A4 (Homo sapiens (Human), UniProt P08684)
- Sequence (P08684 whole entry): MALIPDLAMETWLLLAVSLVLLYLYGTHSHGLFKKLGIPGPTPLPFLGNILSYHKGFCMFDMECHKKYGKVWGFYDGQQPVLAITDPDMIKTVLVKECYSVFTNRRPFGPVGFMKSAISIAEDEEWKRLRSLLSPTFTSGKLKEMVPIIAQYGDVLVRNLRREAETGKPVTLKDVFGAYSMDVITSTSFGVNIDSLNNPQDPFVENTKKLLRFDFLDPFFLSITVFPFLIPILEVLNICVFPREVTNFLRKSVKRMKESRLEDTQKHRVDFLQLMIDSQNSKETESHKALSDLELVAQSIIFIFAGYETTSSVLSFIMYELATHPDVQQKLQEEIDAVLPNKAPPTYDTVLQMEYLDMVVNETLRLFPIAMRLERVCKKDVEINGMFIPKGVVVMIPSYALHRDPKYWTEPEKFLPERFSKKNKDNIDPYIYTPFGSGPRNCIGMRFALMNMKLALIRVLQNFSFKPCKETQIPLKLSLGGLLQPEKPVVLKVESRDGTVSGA
- Assay comment: Cytochrome P450 inhibition assay, recombinant CYP3A4 (BFC substrate)
- Assay type: in vitro ADME
- Setup conditions: recombinant enzyme
Readout kind: IC50 (µM)
State just the number; it will be interpreted in µM.

Recorded IC50, per entry:
> print(dat)
                                   compound  readout.kind  reading
1  CNC[C@@H](c1ccc2ccccc2c1)[C@@H](O)c1ccccc1F [Compound 78]          IC50       20
2  CNC[C@H](c1ccc(Cl)c(Cl)c1)[C@H](O)c1cccc(Br)c1 [Compound 76]          IC50      3.6
3  CNC[C@H](c1ccc(Cl)c(Cl)c1)[C@@H](O)c1ccccc1I [Compound 152]          IC50        2

Query string: So what's the measured IC50 for this one? CNC[C@@H](Cc1ccc(C)s1)c1ccc2ccccc2c1 [Compound 44]
Result string: 8

====

- Assay comment: pKa of basic centres (Table 1)
- Assay type: physicochemical
- Setup conditions: second base in the same molecule (if present); read-out: pKa (Base 2)
Label 1 when pKa is at or above 5; otherwise label 0.

> print(dat)
                                   molecule  assigned.label
1  CNCC(Cc1cccnc1)c1ccc2ccccc2c1 (centres unmarked)               1
2  CNC[C@H](c1ccc2ccccc2c1)[C@@H](O)c1ccncc1Cl               0
3  CNC[C@@H](c1ccc2ccccc2c1)[C@H](O)c1ccccn1 (racemic) [Compound 72]               0
4  CN(C)C[C@H](c1ccc2ccccc2c1)[C@H](N)c1ccccc1               1
5       CNC[C@H](Cc1cccnc1)c1ccc(Cl)c(Cl)c1               1

Query string: Identify whether the reported pKa of the following molecule is 5 or greater: "CNC[C@H](c1ccc2ccccc2c1)[C@H](N)c1ccccc1"
Result string: 1

Query string: Could you do the same for "CNC[C@@H](Cc1cccnc1)c1ccc(Cl)c(Cl)c1" , please?
Result string: 1

====

Here the recorded pIC50 is given for each entry.
- Tested on: CYP2D6 (Homo sapiens (Human), UniProt P10635)
- Sequence (P10635 whole entry): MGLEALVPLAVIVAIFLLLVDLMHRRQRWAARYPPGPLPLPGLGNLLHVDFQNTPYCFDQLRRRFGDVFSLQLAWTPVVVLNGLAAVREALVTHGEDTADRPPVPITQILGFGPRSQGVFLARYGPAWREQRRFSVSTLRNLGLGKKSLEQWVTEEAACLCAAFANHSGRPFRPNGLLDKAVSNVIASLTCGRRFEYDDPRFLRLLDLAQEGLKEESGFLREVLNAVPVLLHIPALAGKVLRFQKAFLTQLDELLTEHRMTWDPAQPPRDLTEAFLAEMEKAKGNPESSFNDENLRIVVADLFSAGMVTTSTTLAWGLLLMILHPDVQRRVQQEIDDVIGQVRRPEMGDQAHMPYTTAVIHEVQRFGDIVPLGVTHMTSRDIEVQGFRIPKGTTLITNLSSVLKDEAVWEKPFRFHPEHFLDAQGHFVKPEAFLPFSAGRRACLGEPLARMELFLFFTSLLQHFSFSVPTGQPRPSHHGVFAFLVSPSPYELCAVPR
- Assay comment: Cytochrome P450 inhibition assay, recombinant CYP2D6 (MAMC substrate)
- Format: in vitro ADME
- Setup conditions: recombinant enzyme
Convention used: pIC50 is expressed as -log10 of the molar concentration.

Recorded pIC50, per entry:
> print(dat)
                                   compound  reading
1  CN(C)C[C@H](c1ccc2ccccc2c1)[C@H](OCCO)c1ccccc1 [Compound 89]     5.74
2  CNCC(c1ccc(Cl)c(Cl)c1)[C@H](O)c1ccccc1 (mixture of isomers) [Compound 53]     6.39

In the following, a different compound is considered.
Query string: So what's the measured pIC50 for this one? CNC[C@H](c1ccc(Cl)c(Cl)c1)[C@H](O)c1cncc(OC)c1 [Compound 166]
Result string: 6.20

====

- Tested on: human norepinephrine transporter (Homo sapiens (Human))
- Sequence (P23975 whole entry): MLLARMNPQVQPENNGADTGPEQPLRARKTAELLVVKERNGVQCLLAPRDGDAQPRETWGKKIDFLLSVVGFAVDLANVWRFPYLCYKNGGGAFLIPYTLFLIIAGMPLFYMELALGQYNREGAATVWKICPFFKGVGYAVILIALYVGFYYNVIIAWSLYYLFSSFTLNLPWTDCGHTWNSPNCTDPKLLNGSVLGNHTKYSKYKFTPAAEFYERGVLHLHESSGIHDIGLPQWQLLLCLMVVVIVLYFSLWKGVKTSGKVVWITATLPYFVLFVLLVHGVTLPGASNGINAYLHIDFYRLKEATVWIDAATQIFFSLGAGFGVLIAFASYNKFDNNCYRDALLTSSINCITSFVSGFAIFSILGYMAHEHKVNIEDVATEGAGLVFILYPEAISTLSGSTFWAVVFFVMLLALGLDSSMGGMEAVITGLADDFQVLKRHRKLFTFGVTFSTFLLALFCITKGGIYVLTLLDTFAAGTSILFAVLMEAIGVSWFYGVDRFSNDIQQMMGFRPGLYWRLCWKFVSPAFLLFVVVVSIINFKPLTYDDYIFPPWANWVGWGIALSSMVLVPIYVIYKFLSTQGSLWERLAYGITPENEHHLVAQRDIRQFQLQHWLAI
- Assay comment: Human NET (norepinephrine transporter) uptake assay
- Format: cell-based
- Setup conditions: read-out: hNET Ki
pKi: −log10 of the molar value.
Label label 1 when pKi is at or above 7; otherwise label label 0.

The following compounds have reported results that may help.
> print(dat)
                                   compound  assigned.label
1  CNCC(C[C@H](O)c1ccccc1)c1ccc2ccccc2c1 (stereo partly shown) [Compound 85]         label 1
2  CNC[C@H](c1ccc(Cl)c(Cl)c1)[C@@H](O)c1cccc(N)c1 [Compound 63]         label 1
3  CNC[C@H](c1ccc2ccccc2c1)[C@H](OCC(=O)N1CCOCC1)c1ccccc1 [Compound 23]         label 1

Query string: Identify whether the reported pKi of the following compound is 7 or greater: CNC[C@@H](c1ccc(Cl)c(Cl)c1)[C@@H](O)c1cccnc1OC [Compound 171]
Result string: label 0

Query string: Could you do the same for CNC[C@H](c1ccc(Cl)c(Cl)c1)[C@H](O)c1cccc(S(C)(=O)=O)c1 [Compound 101] , please?
Result string: label 1

Query string: Could you do the same for CNC[C@@H](c1ccc2ccccc2c1)[C@@H](O)c1ccccc1F [Compound 78] , please?
Result string: label 1

Query string: Could you do the same for CNC[C@H](c1ccc2ccccc2c1)[C@H](Cl)c1ccccc1 [Compound 146] , please?
Result string: label 1

Query string: Could you do the same for CNC[C@H](c1ccc(Cl)c(Cl)c1)[C@H](O)c1ccccc1I [Compound 164] , please?
Result string: label 1

Query string: Could you do the same for CNC[C@@H](c1ccc2ccccc2c1)[C@@H](O)c1ccc2c(c1)OCCO2 (racemic) [Compound 145] , please?
Result string: label 1

Query string: Could you do the same for CNC[C@H](c1ccc(Cl)c(Cl)c1)[C@@H](O)c1cccnc1OC [Compound 104] , please?
Result string: label 1

Query string: Could you do the same for CNC[C@@H](c1ccc(Cl)c(Cl)c1)[C@@H](OC)c1cccc(NS(=O)(=O)C(F)(F)F)c1 [Compound 172] , please?
Result string: label 0

This collection of values is drawn from patent US9944618B2.
